- SYSTEM_TESTED: T1, human calcitonin receptor (hCTR) (human, UniProt P30988 25-474)
- T1 sequence (looked up): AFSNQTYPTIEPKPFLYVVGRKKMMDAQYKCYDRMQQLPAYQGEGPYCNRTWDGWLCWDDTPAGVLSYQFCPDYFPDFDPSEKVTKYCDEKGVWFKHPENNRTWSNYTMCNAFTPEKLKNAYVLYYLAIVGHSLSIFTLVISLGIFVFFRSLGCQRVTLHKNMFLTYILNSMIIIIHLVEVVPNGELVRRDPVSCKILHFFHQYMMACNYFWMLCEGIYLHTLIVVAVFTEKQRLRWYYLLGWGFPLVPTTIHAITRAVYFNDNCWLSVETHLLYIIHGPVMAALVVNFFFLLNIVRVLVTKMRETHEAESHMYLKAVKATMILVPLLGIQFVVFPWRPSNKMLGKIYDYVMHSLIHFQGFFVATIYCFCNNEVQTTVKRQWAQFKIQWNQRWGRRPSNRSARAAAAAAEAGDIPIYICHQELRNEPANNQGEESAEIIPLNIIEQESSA
- ASSAY_INFO: cell-based or functional assay
Numbered stars: 1 amine (or outer) side, 2 acyl side, 3 side chain; on linkers, the order of the positions; unused ones are H or OH. Bridge positions count the residues as written; N and C are the ends. Square brackets hold non-standard residues; d marks the D form. Side chains are listed from the residue outwards. Ends that are not written are not given here. * marks the point of attachment. C20 diacid = O=C(O)CCCCCCCCCCCCCCCCCCC(=O)*; γGlu = O=C(O)[C@H](CCC(=O)[*:2])N[*:1]; αMeF = C[C@](N)(Cc1ccccc1)C(=O)O; NMeD = CN[C@@H](CC(=O)O)C(=O)O; NMeN = CN[C@@H](CC(N)=O)C(=O)O; αMeL = CC(C)C[C@](C)(N)C(=O)O; Orn = NCCC[C@H](N)C(=O)O; AEEA = NCCOCCOCC(=O)O; CH2 = C([*:1])[*:2]
Kindly supply the reported hCTR cAMP EC50 values for the records listed here.
Answer in nM, number only, no unit symbol.

For record KCETATCATG[Orn][αMeL]AEFLVRSSHNFGPILPPTEVGSNTY-NH2 (bridge 2-7 via CH2) [Compound VII] the listed hCTR cAMP EC50 is 11.9

For record [γGlu]CNTATCATGKLAEFLVRSSNNFGPK([γGlu-AEEA-AEEA-C20 diacid])LPPTEVGSNTY-NH2 (bridge 2-7 via CH2) [Compound X] the listed hCTR cAMP EC50 is 14

For record [γGlu]CNTATCATG[Orn]LAE[αMeF]LVRSSN[NMeD]FGPK([γGlu-γGlu-C20 diacid])LPPTEVGSNTY-NH2 (bridge 2-7 via CH2, Acylated form of Compound III) [Compound IV] the listed hCTR cAMP EC50 is 6.14

For record [γGlu]CNTATCATGKLAEFLVRSSNNFGPK([γGlu-γGlu-AEEA-C20 diacid])LPPTEVGSNTY-NH2 (bridge 2-7 via CH2) [Compound XI] the listed hCTR cAMP EC50 is 10.5

For record [γGlu]CNTATCATG[Orn]LAE[αMeF]LVRSSN[NMeN]FGPK([γGlu-γGlu-C20 diacid])LPPTEVGSNTY-NH2 (bridge 2-7 via CH2, Acylated form of Compound I) [Compound II] the listed hCTR cAMP EC50 is 2.34
